System: RAW-Dual (murine macrophage reporter line)
protocolNotes: NF-kB reporter (SEAP) activity fold change vs agonist alone; higher = enhanced NF-kB activity
measurementContext: modulator concentration 10 µM; agonist: MPLA […]
propertyLabel: NF-kB reporter
Answer with the value's number alone.

The cases that follow already have their NF-kB reporter on record.
compound: COc1ccc2[nH]c(S(=O)Cc3ncc(C)c(OC)c3C)nc2n1 (stereo unspecified)
target: RAW-Dual (murine macrophage reporter line)
NF-kB reporter: 0.994
--
compound: CCSc1nnc(NC(=O)Cc2ccc([N+](=O)[O-])cc2)s1
target: RAW-Dual (murine macrophage reporter line)
NF-kB reporter: 0.96
--
compound: CN(C)CCC(c1ccc(Cl)cc1)c1ccccn1.O=C(O)/C=C\C(=O)O (stereo unspecified)
target: RAW-Dual (murine macrophage reporter line)
NF-kB reporter: 1.1
--
compound: Cc1ccc(S(=O)(=O)O)cc1.NC(=O)c1cccc2cn(-c3ccc([C@@H]4CCCNC4)cc3)nc12
target: RAW-Dual (murine macrophage reporter line)
NF-kB reporter: 0.372
--
compound: Cc1cnc(C(=O)O)c[n+]1[O-]
target: RAW-Dual (murine macrophage reporter line)
NF-kB reporter: 1.03
--
compound: CCNc1cc(C)nc(Nc2ccc(NC(=O)c3ccc(OC)c(OC)c3)cc2)n1
target: RAW-Dual (murine macrophage reporter line)
NF-kB reporter: 1.74

For CSc1cc(C=NO)c(SC)s1 , what is its reported NF-kB reporter? 0.886

---

System: RAW-Dual (murine macrophage reporter line)
protocolNotes: NF-kB reporter (SEAP) activity fold change vs agonist alone; higher = enhanced NF-kB activity
measurementContext: modulator concentration 10 µM; agonist: MPLA […]
Recorded NF-kB reporter values for a group of compounds are listed next.
Just the number, please.

NF-kB reporter for Cl.N=C(N)NC(=O)c1nc(Cl)c(N)nc1N ? 0.891

Continue with COCCCNC(=O)C1CCCN(c2ccc(Sc3ccc(Br)cc3)nn2)C1 (configuration not stated) 1.15

Do the same for O=C(Nc1nccs1)c1ccc2c(c1)C(=O)N(C1CCCCC1)C2=O please 0.878

Same question for COc1ccc2c(c1)c(=O)oc1cc(OCc3cccc(C(F)(F)F)c3)ccc12 please. 1.04

Check Cl.NCc1ccc(S(N)(=O)=O)cc1 too. 0.998

---

Test system: RAW-Dual (murine macrophage reporter line)
protocolNotes: IRF reporter (Lucia luciferase) activity fold change vs agonist alone; higher = enhanced IRF activity
measurementContext: modulator concentration 10 µM; agonist: 3'3'-cGAMP 10 ug/mL
Quick rule: IRF reporter of at least 0.9 means Yes, below that means No.

Study these solved cases before continuing.
compound: c1cnn(-c2ccc(N=Nc3ccc(-n4cccn4)cc3)cc2)c1
answerLabel: No

compound: CS(=O)(=O)O.O=C(NC1CCN(CCCCC2(C(=O)NCC(F)(F)F)c3ccccc3-c3ccccc32)CC1)c1ccccc1-c1ccc(C(F)(F)F)cc1
answerLabel: No

compound: CC(Oc1cccc(Cl)c1)C(=O)NCc1ccncc1 (stereo not given)
answerLabel: Yes

compound: COC(CNS(=O)(=O)c1cccnc1)c1ccc(C)s1 (stereo not given)
answerLabel: Yes

compound: CCN(CC)C(=S)SSC(=S)N(CC)CC
answerLabel: Yes

State whether the measured IRF reporter reaches 0.9, counting equality as reaching it, for CC1=NN(c2ccc(S(N)(=O)=O)cc2)C(=O)C1=Cc1ccc(N(C)C)cc1 No

Again, but for COC(=O)C1=C(C)NC(=O)CC1c1cc([N+](=O)[O-])ccc1Cl (stereo not given) Yes

---

System: RAW-Dual (murine macrophage reporter line)
protocolNotes: IRF reporter (Lucia luciferase) activity fold change vs agonist alone; higher = enhanced IRF activity
measurementContext: modulator concentration 10 µM; agonist: 3'3'-cGAMP 10 ug/mL
propertyLabel: IRF reporter
// no unit string in output, number only

compound: O=S(=O)(NCCn1ccn2nccc12)c1ccccc1Br
IRF reporter: 0.989

Param item = CCOC(=O)Nc1ccc(NCc2ccc(F)cc2)nc1N.O=C(O)/C=C/C(=O)O ; retrieve measured IRF reporter. 0.678

How about this compound: C=C(C)COc1ccc(-c2ncncc2-c2ccccc2)c(O)c1 0.996

Same question, COC(=O)C1=C(C)NC(C)=C(C(=O)OC(C)C)C1c1cccc2nonc12 (centres undefined) this time 0.645

Same lookup for c1ccc2oc(SCCCCSc3nc4ccccc4o3)nc2c1 , please. 0.821

Also, COc1ccc(C=NNc2nc(Nc3ccc(C)cc3Br)nc(N3CCOCC3)n2)c(OC)c1 please. 0.649

Now this one: COCCCNC(=O)CSc1ccc(Cl)cc1 0.889

Input CCOC(=O)C1=C(C)NC(C)=C(C(=O)OCC)C1c1ccc(F)cc1 1.05

How about Cc1ccc(COc2cccc(C=C3SC(=S)NC3=O)c2)cc1 ? 0.793

---

Tested on: RAW-Dual (murine macrophage reporter line)
protocolNotes: viability score (confluency relative to resting cells, overnight) (fraction); higher = more viable, active = viable (0.7 or more)
measurementContext: modulator concentration 10 µM
We begin with a simple list: items and their reported viability score.
Reply with the value as a number alone.

Here's what some known entries look like.
compound: Cc1cn(-c2cc(NC(=O)c3ccc(C)c(Nc4nccc(-c5cnccn5)n4)c3)cc(C(F)(F)F)c2)cn1
viability score: 0.988

compound: N#Cc1c(N=Cc2ccc(O)cc2)sc2c1CCCC2
viability score: 0.997

Find viability score (RAW-Dual (murine macrophage reporter line)) for the entry NCCCCC(=O)O.O=C1c2ccccc2C(=O)C1[N+](=O)[O-] 1

Moving on to Cc1ccc(-c2cc(-c3ccccc3)nc(NN=Cc3ccc(Br)cc3)n2)cc1 0.997

Can you handle COc1ccccc1N1C(=O)C(=Cc2ccc3c(c2)OCO3)SC1=S next? 0.999

And for Br.O=S(=O)(c1ccc(-c2csc(Nc3ccc(Cl)cc3)n2)cc1)N1CCOCC1 ? 0.995

Also check Nc1nc(N)c2nc(-c3ccccc3)c(N)nc2n1 0.92

Another: COc1ccccc1OCCOCCOc1cccc(Br)c1 0.802

Same read-out for Oc1nc[nH]n1 ? 1

Please give the result for Cc1ccc(C2(c3ccc(C)cc3)CC2C(=O)Nc2cccnc2)cc1 (stereo not drawn) too. 0.998

Also COc1ccc(C=NNC(=O)CSc2nnc(-c3ccccc3)n2-c2ccccc2)cc1OC , if possible. 0.996

Likewise for CCC(=O)N1c2ccccc2NC2=C(C(=O)CC(c3ccccc3F)C2)C1c1ccc(C)cc1 (stereo not drawn) ? 1.01

Subsequent entry: c1coc(CNc2nc(-c3ccncc3)cs2)c1 0.981

Quick one: CCC1=C(C)CN(C(=O)NCCc2ccc(S(=O)(=O)NC(=O)N[C@H]3CC[C@H](C)CC3)cc2)C1=O 0.996

Continue with Cc1ccc(C23CC4CC(CC(CN)(C4)C2)C3)cc1.Cl 0.46

Moving on to the next compound: O=[N+]([O-])c1ccc(OCC(O)CN2CCN(c3ccccc3)CC2)cc1 (stereo not drawn) 1.01

Then CN1C(=N)NC(=O)C1=Cc1cc(Br)cc(Br)c1O ? 0.998

---

System: RAW-Dual (murine macrophage reporter line)
protocolNotes: NF-kB reporter (SEAP) activity fold change vs agonist alone; higher = enhanced NF-kB activity
measurementContext: modulator concentration 10 µM; agonist: CpG ODN 1826 0.5 ug/mL
Recorded NF-kB reporter by entry

compound: CCS(=O)(=O)N1CCC2(CC1)NC(=O)N(CCOc1ccccc1)C2=O
NF-kB reporter: 0.871

We now examine a further compound.
Which NF-kB reporter reading was recorded for the compound S=c1n(CN2CCOCC2)nc(-c2ccccc2Cl)n1-c1ccccc1 ? 1.06

---

Test system: RAW-Dual (murine macrophage reporter line)
protocolNotes: IRF reporter (Lucia luciferase) activity fold change vs agonist alone; higher = enhanced IRF activity
measurementContext: modulator concentration 10 µM; agonist: MPLA […]
propertyLabel: IRF reporter
Answer with a number only.

molecule: COc1cc2nc(N(C)CCCNC(=O)C3CCCO3)nc(N)c2cc1OC.Cl (centres undefined)
IRF reporter: 1.09

Would you mind telling me what IRF reporter value was observed for CCOC(=O)C1=C(CC)OC(N)=C(C#N)C1c1cccc(Oc2ccc(Cl)cc2)c1 (centres undefined) ? 1.12

Now give it for O=C(c1cccs1)c1nc2c(n1O)CCCCC2 too. 0.858

Request: CCOc1cccc2sc(=NC(=O)c3ccc(S(=O)(=O)N4CCOCC4)cc3)n(C)c12 1.27

---

// reported IRF reporter for each item listed
Tested on: RAW-Dual (murine macrophage reporter line)
protocolNotes: IRF reporter (Lucia luciferase) activity fold change vs agonist alone; higher = enhanced IRF activity
measurementContext: modulator concentration 10 µM; agonist: MPLA […]
// no unit string in output, number only

compound: CN1CCN(c2ccc(-c3cccc(NC(=O)COc4ccc(Cl)cc4)c3)nn2)CC1
propertyLabel: IRF reporter
reportedValue: 0.966
//
compound: CCOC(=O)C(CCc1ccccc1)NC(C)C(=O)N1C(C(=O)O)CC2CCCCC21 (configuration not stated)
propertyLabel: IRF reporter
reportedValue: 1.27
//
compound: Cl.Fc1ccc(C2CCNCC2COc2ccc3c(c2)OCO3)cc1 (configuration not stated)
propertyLabel: IRF reporter
reportedValue: 1.07
//
compound: CC1=NN(c2ccc(S(N)(=O)=O)cc2)C(=O)C1=Cc1ccc(N(C)C)cc1
propertyLabel: IRF reporter
reportedValue: 0.892

Lab note: need IRF reporter with RAW-Dual (murine macrophage reporter line) for entry COC(=O)CCS(=O)(=O)c1ccc2ccccc2c1 , please look it up. 1.06

Follow-up item: CC(CN1c2ccccc2Sc2ccccc21)N(C)C.Cl (configuration not stated) 1.15

Can you handle O=C(NCC(O)(c1ccccc1)C(F)(F)F)c1ccc(Br)o1 (configuration not stated) next? 1.05
